- Test system: C2C12
- assayRemarks: Induction of AMPKalpha phosphorylation at Thr-172 residue in mouse C2C12 cells at 20 uM after 1 hr by Western blot analysis
- Type: cell-based
The source made the active and inactive calls. The calls are words filed in the database; no cut-off is given here.
Classes to choose from: active, inactive

[in] Please state the recorded outcome for this compound: C[C@@H]1O[C@@H](OC[C@H]2O[C@@H](O[C@H]3CC[C@]4(C)[C@H]5CC(=O)[C@@H]6[C@@H]([C@@](C)(O)CC(=O)CC(C)(C)O)CC[C@@]6(C)[C@]5(C)CC[C@H]4C3(C)C)[C@H](O[C@@H]3O[C@@H](C)[C@H](O)[C@@H](O)[C@H]3O)[C@@H](O[C@@H]3O[C@@H](C)[C@H](O)[C@@H](O)[C@H]3O)[C@H]2O)[C@H](O)[C@H](O)[C@H]1O
[out] inactive

[in] Do the same for CC(=O)[C@H]1CC[C@]2(C)[C@@H]1C(=O)C[C@@H]1[C@@](C)(CCC(=O)O)[C@@H](C(C)(C)O)CC[C@]12C please
[out] active

[in] // query: C[C@@H]1O[C@@H](O[C@H]2[C@H](O[C@H]3CC[C@]4(C)[C@H]5CC(=O)[C@@H]6[C@@H]([C@@](C)(O)C/C=C/C(C)(C)O)CC[C@@]6(C)[C@]5(C)CC[C@H]4C3(C)C)O[C@H](CO)[C@H](O)[C@@H]2O[C@@H]2O[C@@H](C)[C@H](O)[C@@H](O)[C@H]2O)[C@H](O)[C@H](O)[C@H]1O
[out] active

[in] Please do the same for CC(=O)[C@H]1CC[C@]2(C)[C@@H]1C(=O)C[C@@H]1[C@@]3(C)CC[C@H](O[C@@H]4O[C@H](CO[C@@H]5O[C@@H](C)[C@H](O)[C@@H](O)[C@H]5O)[C@H](O)[C@H](O[C@@H]5O[C@@H](C)[C@H](O)[C@@H](O)[C@H]5O)[C@H]4O[C@@H]4O[C@@H](C)[C@H](O)[C@@H](O)[C@H]4O)C(C)(C)[C@@H]3CC[C@]12C as well.
[out] active

[in] What do you have for CC(=O)[C@H]1CC[C@]2(C)[C@@H]1C(=O)C[C@@H]1[C@@]3(C)CC[C@H](O[C@@H]4O[C@H](CO)[C@H](O)[C@H](O[C@@H]5O[C@@H](C)[C@H](O)[C@@H](O)[C@H]5O)[C@H]4O[C@@H]4O[C@@H](C)[C@H](O)[C@@H](O)[C@H]4O)C(C)(C)[C@@H]3CC[C@]12C ?
[out] active

[in] And what about the compound C[C@@H]1O[C@@H](OC[C@H]2O[C@@H](O[C@H]3CC[C@]4(C)[C@H]5CC(=O)[C@@H]6[C@@H]([C@@](C)(O)C/C=C/C(C)(C)O)CC[C@@]6(C)[C@]5(C)CC[C@H]4C3(C)C)[C@H](O[C@@H]3O[C@@H](C)[C@H](O)[C@@H](O)[C@H]3O)[C@@H](O[C@@H]3O[C@@H](C)[C@H](O)[C@@H](O)[C@H]3O)[C@H]2O)[C@H](O)[C@H](O)[C@H]1O ?
[out] inactive

[in] Next entry: CC(C)=CC(=O)C[C@](C)(O)[C@H]1CC[C@]2(C)[C@@H]1C(=O)C[C@@H]1[C@@](C)(CCC(=O)O)[C@@H](C(C)(C)O)CC[C@]12C
[out] active

[in] CC(C)=CC(=O)/C=C(/C)[C@H]1CC[C@]2(C)[C@@H]1C(=O)C[C@@H]1[C@@]3(C)CC[C@H](O[C@@H]4O[C@H](CO[C@@H]5O[C@@H](C)[C@H](O)[C@@H](O)[C@H]5O)[C@H](O)[C@H](O[C@@H]5O[C@@H](C)[C@H](O)[C@@H](O)[C@H]5O)[C@H]4O[C@@H]4O[C@@H](C)[C@H](O)[C@@H](O)[C@H]4O)C(C)(C)[C@@H]3CC[C@]12C ?
[out] inactive

[in] Could you do the same for CC(C)(O)CC(=O)C[C@](C)(O)[C@H]1CC[C@]2(C)[C@@H]1C(=O)C[C@@H]1[C@@](C)(CCC(=O)O)[C@@H](C(C)(C)O)CC[C@]12C , please?
[out] active
